biological target: Melanocortin receptor 4 (Homo sapiens) (UniProt P32245); test: activators of MC4R beta-arrestin recruitment – cell-based, luminescence, agonist arm of biased-ligand search, primary screen (AID 540308); settings: U2OS MC4R beta-arrestin complementation, at 8.9 µM, hits give high values, percent of melanotan II response, DMSO zero
Sequence (P32245 whole entry, looked up): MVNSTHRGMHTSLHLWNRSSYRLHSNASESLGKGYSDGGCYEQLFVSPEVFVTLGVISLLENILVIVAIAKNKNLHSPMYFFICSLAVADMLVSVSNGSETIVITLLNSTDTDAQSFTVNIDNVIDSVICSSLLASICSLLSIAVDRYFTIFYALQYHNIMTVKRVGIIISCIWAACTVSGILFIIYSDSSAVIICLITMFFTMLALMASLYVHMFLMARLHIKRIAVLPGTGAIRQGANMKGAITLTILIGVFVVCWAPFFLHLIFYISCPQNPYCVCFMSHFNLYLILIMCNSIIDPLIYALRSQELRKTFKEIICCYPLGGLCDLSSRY
The campaign covered roughly 360,000 compounds. About 3,500 (0.97%) were called active. The sample holds actives, similar compounds and a random draw of the others, so the mix is not that of the screen.
EXPERIMENTAL_ENDPOINT: activation (%)
Kindly provide the numeric value in % only, without the unit symbol.

# MOLECULE, MEASUREMENT_UNITS, activation
measured = [
    ("CCOC(=O)c1cc(=O)c2ccc(OCc3ccccc3)cc2o1", "%", -0.49),
    ("CN(C)CCN(C(=O)C1=COCCO1)c1nc2ccc(Cl)cc2s1", "%", 1.13),
    ("COCOc1cccc(CN2CCC(C)(Oc3ccc(SC)cc3)C2)c1 (stereo not drawn)", "%", 0.12),
    ("CCOc1ccc(CNC(=O)C2CCCN(c3nnc(C)c4c(C)n(-c5ccccc5)nc34)C2)cc1 (stereo not drawn)", "%", 5.34),
    ("N#CCC(=O)N/N=C/c1cn(Cc2ccc3ccccc3c2)c2ccccc12", "%", 11.1),
    ("Cc1cc(Cl)ccc1-c1nc(NCCN(C)C)nc2ccsc12", "%", -0.54),
]

Measured activation of `CN(C)CCCN(C(=O)c1ccc(S(=O)(=O)N2CCCCCC2)cc1)c1nc2ccc(Br)cc2s1` : 9.74

Lab note: measured activation of `Cc1ccc(-n2c(SCC(=O)Nc3ccc4c(c3)OCO4)nnc2-c2ccccn2)cc1` was 1.14

Entry under test: CCN(C(=O)COC(=O)c1ccc(COc2ccc3c(C)cc(=O)oc3c2)cc1)C1CCS(=O)(=O)C1 (stereo not drawn) . Its activation was -3.78

The molecule listed as `COc1ccc(Nc2oc(-c3ccccc3Cl)nc2C#N)cc1` has a reported activation of 13.3

In plain terms, `COc1ccc(CNc2nnnn2C)cc1` has a documented activation of -2.31

The reported value for `Cc1ccc2nc(-c3ccncc3)cc(C(=O)Nc3ccc(OC(F)F)cc3)c2c1` in terms of activation is 13.6

`CCc1ccc(-c2cc(C(=O)NN3CCN(C)CC3)c3ccccc3n2)cc1` yielded activation of -0.59

Reported activation for `CN(C)C(=O)c1cccc(-c2cnc3sc(NCc4ccc5c(c4)OCO5)nn23)c1` was 0.82

Just so you know, measured activation for `COc1ccc(Cn2cccc(NC(=O)Nc3ccc(C#N)cc3)c2=O)cc1` came out at 8.99

Sample `N#Cc1nc(-c2cccc3ccccc23)oc1N` ; activation observed: -1.15

Given item CN(C(=O)CCN1C(=O)/C(=C/c2ccccc2F)SC1=S)C1CCS(=O)(=O)C1 (stereo not drawn) , the value recorded as its activation is -1.67

Reported activation of `OC[C@@H]1CN(Cc2ccncc2)C[C@H](n2cnc3c(N4CCN(c5ccccc5)CC4)ncnc32)O1` : 0.16

Lab note: `COc1cc(OC)c(C(=O)OCC(=O)N2CC(=O)Nc3ccccc32)cc1OC` gave activation of -2.02

The reported value for CCCS(=O)(=O)NC(=O)C1(C)CCCN(C(=O)c2cc(C)on2)C1 (stereo not drawn) in terms of activation is 1.12

Briefly, activation measured for `CSc1ncccc1C(=O)Nc1ccc2c(c1)OCO2` : -2.93

* * *

Here, each record is paired with measured activation data.
biological target: Melanocortin receptor 4 (Homo sapiens) (UniProt P32245); assay: activators of MC4R beta-arrestin recruitment – cell-based, luminescence, agonist arm of biased-ligand search, primary screen (AID 540308); details: U2OS MC4R beta-arrestin complementation, at 8.9 µM, hits give high values, percent of melanotan II response, DMSO zero
About 3,500 (0.97%) of roughly 360,000 compounds were called active. This excerpt belongs to a sample that is enriched for actives.
API: value field is a number in %; no unit string.

Here's what some known entries look like.
# MOLECULE, activation / %
data = [
    ("OC(c1ccc(Cl)c(F)c1)c1ncc(-c2ccccc2Cl)[nH]1 (stereo unspecified)", 5.44),
    ("CC12CCC(=O)C=C1CCC1C2C(O)CC2(C)C1CCC2(O)C(O)CO (stereo unspecified)", -0.23),
    ("CC(C)NC(=O)C1(C)CCCCCN1C(=O)c1ccc(-c2ccccc2)cc1 (stereo unspecified)", -1.12),
    ("Cc1ccc(Nc2nnc(SC(C)C(=O)NC3CC3)s2)cc1 (stereo unspecified)", 1.11),
    ("COc1ccc(C(=O)c2oc3ccc(Br)cc3c2NC(C)=O)cc1", 11.7),
]

Tested on Melanocortin receptor 4 (Homo sapiens) (UniProt P32245): `Cc1ccc(Nc2nc(N)nc(CSc3nnc(C)s3)n2)cc1` . Observed activation: -0.99

Query `S=C(NCCCc1cnc[nH]1)NCCCN(Cc1ccc(Cl)c(Cl)c1)c1ccc(Br)cn1` on Melanocortin receptor 4 (Homo sapiens) (UniProt P32245); activation returned: 17.5

Noted activation for CC1(C(=O)NS(=O)(=O)c2cccs2)CCN1C(=O)Cc1ccc(-c2ccccc2)cc1 (stereo unspecified) , tested on Melanocortin receptor 4 (Homo sapiens) (UniProt P32245): 1.02

Melanocortin receptor 4 (Homo sapiens) (UniProt P32245) data for `Cc1ccc(Nc2nnc(SCc3ccccc3)s2)cc1` ; its activation: 16.6

Tested system Melanocortin receptor 4 (Homo sapiens) (UniProt P32245); activation recorded for CCCCc1ccc(S(=O)(=O)NC(=O)C2(C)CCN2C(=O)c2ccccc2)cc1 (stereo unspecified) was 0.97

Item: `NCCCNC(=S)NCCCN(Cc1ccc(Cl)cc1)c1ccc(Br)cn1` | System: Melanocortin receptor 4 (Homo sapiens) (UniProt P32245) | activation: 5.16

* * *

molecular target: Melanocortin receptor 4 (Homo sapiens); assay: activators of MC4R beta-arrestin recruitment – cell-based, luminescence, agonist arm of biased-ligand search, primary screen (AID 540308); conditions: U2OS MC4R beta-arrestin complementation, at 8.9 µM, percent of melanotan II response, DMSO zero
In all, about 360,000 compounds went through this assay and about 3,500 (0.97%) were called active.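 The calls were made as follows: active = activation above a per-plate cutoff, the mean activation of sample wells on that plate plus 3 SD (cut at about 8% in these data); inactive = the rest.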 For the sample, actives were picked, then their nearest neighbours and some compounds at random.
Respond with a class label; see active, inactive

# COMPOUND, LABEL_CLASS
data = [
    ("Cc1ccccc1S(=O)(=O)NC(=O)C1(C)CCN1C(=O)Cc1ccc(Cl)cc1Cl (configuration not stated)", "inactive"),
    ("COc1cccc(NC(=O)Nc2ccc(F)cc2)c1", "inactive"),
    ("O=C(COC(=O)c1ccccc1)Nc1ccccc1Sc1ccccc1", "inactive"),
    ("COc1ccc(OCC(=O)NNC(=O)C2CCC2)cc1", "inactive"),
    ("O=C(CN1CCCC1)Nc1sc2c(c1C(=O)Nc1ccccc1)CCCC2", "inactive"),
]

QUERY: Could you kindly confirm the outcome this assay logged for COCCNC(=O)C1(C)CCCN(Cc2cccc(F)c2)C1 (configuration not stated) ?
RESULT: inactive

QUERY: # lookup: test call for O=C(NCc1ccc(F)cc1)c1cc(C2CCCCN2C(=O)c2ccccn2)on1 (configuration not stated)
RESULT: inactive

QUERY: Test call for this compound, please: `O=C(Cn1nnc(-c2ccccc2)n1)N/N=C/c1ccc(-c2ccc(Cl)cc2)o1`
RESULT: active

* * *

target: Melanocortin receptor 4 (Homo sapiens); experiment: activators of MC4R beta-arrestin recruitment – cell-based, luminescence, agonist arm of biased-ligand search, primary screen (AID 540308); conditions: U2OS MC4R beta-arrestin complementation, at 8.9 µM, hits give high values, percent of melanotan II response, DMSO zero
In all, about 360,000 compounds went through this assay and about 3,500 (0.97%) were called active. The sample holds actives, similar compounds and a random draw of the others, so the mix is not that of the screen.
EXPERIMENTAL_ENDPOINT: activation (%)
Answer with a number only, understood to be in %.

Consider the worked cases shown below.
# SAMPLE_SMILES, ASSAY_TARGET, MEASUREMENT_UNITS, activation
rows = [
    ("COC(=O)C1=C(O)/C(=C/c2ccc(OCC(=O)Nc3ccccc3)cc2)N=C1C", "Melanocortin receptor 4 (Homo sapiens)", "%", -2.96),
    ("COc1ccc(NC(=O)c2sc(=O)n(Cc3ccc(S(=O)(=O)N(C)C)cc3)c2C)cc1", "Melanocortin receptor 4 (Homo sapiens)", "%", -1.44),
    ("CCOC(=O)C1=C(O)/C(=C/c2ccc(OCC(=O)Nc3ccc(C)cc3)cc2)N=C1C", "Melanocortin receptor 4 (Homo sapiens)", "%", 16.8),
]

So for `CC(=O)Oc1ccc(Cn2c(C)c(C(=O)NCc3ccc(C#N)cc3)sc2=O)cc1` , the logged activation turned out to be 0.49

Per the record, `CC(C)Nc1ncnc2c1ncn2[C@H]1CN(Cc2ccncc2)C[C@@H](CO)O1` has activation of 2.39
